test system: Pseudaletia separate Walker; test: Insecticidal activities to armyworm, leaf dipping and feeding; format: in vivo; settings: in vivo
Reported Endpoint: Pseudaletia separate Walker Mortality (%) 500 ppm
Quick reminder: number only, in %, skip the unit.

>  <Compound>
O=[N+]([O-])C(=Cc1ccncc1)C1=NCCN1Cc1ccc(Cl)nc1

>  <Unit Abbreviation>
%

>  <Recorded Value>
35

$$$$
>  <Compound>
O=[N+]([O-])C(=Cc1cc(Br)co1)C1=NCCN1Cc1ccccc1

>  <Unit Abbreviation>
%

>  <Recorded Value>
96

$$$$
>  <Compound>
O=[N+]([O-])C(=Cc1cc(Br)c(Br)s1)C1=NCCN1Cc1ccc(Cl)nc1

>  <Unit Abbreviation>
%

>  <Recorded Value>
100

$$$$
>  <Compound>
O=[N+]([O-])C(=Cc1cnc[nH]1)C1=NCCN1Cc1ccc(Cl)nc1

>  <Unit Abbreviation>
%

>  <Recorded Value>
100

$$$$
>  <Compound>
O=[N+]([O-])C(=Cc1ccc[nH]1)C1=NCCN1Cc1ccc(Cl)nc1

>  <Unit Abbreviation>
%

>  <Recorded Value>
100

$$$$

Pseudaletia separate Walker Mortality (%) 500 ppm recorded for this compound, O=[N+]([O-])C(=Cc1cc(Br)co1)C1=NCCN1Cc1cnc(Cl)s1 , is 100

Pseudaletia separate Walker Mortality (%) 500 ppm recorded for this compound, C[N+]1=C(C(=Cc2oc(Cl)cc2Cl)[N+](=O)[O-])N(Cc2ccc(Cl)nc2)CC1.[Cl-] , is 100

Pseudaletia separate Walker Mortality (%) 500 ppm recorded for this compound, O=[N+]([O-])C(=Cc1ccc(CO)o1)C1=NCCCN1Cc1ccc(Cl)nc1 , is 84

Pseudaletia separate Walker Mortality (%) 500 ppm recorded for this compound, CC(=C(C1=NCCN1C(C)c1ccc(Cl)nc1)[N+](=O)[O-])c1ccc(Cl)o1 (racemic) , is 100

Pseudaletia separate Walker Mortality (%) 500 ppm recorded for this compound, N#CC(=Cc1ccoc1)C1=NCCN1Cc1ccc(Cl)nc1 , is 100

---

system: Plutella xylostella; test: Insecticidal activities to diamondback moth, feeding dipped leaves; type: in vivo; conditions: in vivo
Reported Endpoint: Plutella xylostella Mortality (%) 500 ppm
Quick reminder: number only, in %, skip the unit.

>  <Smiles Text>
O=[N+]([O-])C(=Cc1cc(Br)c(Br)o1)C1=NCCN1Cc1ccc(Cl)nc1

>  <Tested Target>
Plutella xylostella

>  <Unit Abbreviation>
%

>  <Recorded Value>
100

$$$$
>  <Smiles Text>
O=[N+]([O-])C(=Cc1cc(Br)c(Br)o1)C1=NCCN1Cc1ccccc1

>  <Tested Target>
Plutella xylostella

>  <Unit Abbreviation>
%

>  <Recorded Value>
51

$$$$
>  <Smiles Text>
O=[N+]([O-])C(=Cc1cccnc1)C1=NCCN1Cc1ccc(Cl)nc1

>  <Tested Target>
Plutella xylostella

>  <Unit Abbreviation>
%

>  <Recorded Value>
87

$$$$

Record C[N+]1=C(C(=Cc2ccc(CO)s2)[N+](=O)[O-])N(Cc2ccc(Cl)nc2)CC1.[Cl-] has Plutella xylostella Plutella xylostella Mortality (%) 500 ppm equal to 100

Record Cc1coc(C=C(C2=[N+](C)CCN2Cc2ccc(Cl)nc2)[N+](=O)[O-])c1.[Cl-] has Plutella xylostella Plutella xylostella Mortality (%) 500 ppm equal to 100

Record CC(=C(C1=NCCN1Cc1ccc(Cl)nc1)[N+](=O)[O-])c1ccsc1 has Plutella xylostella Plutella xylostella Mortality (%) 500 ppm equal to 64

Record C[N+]1=C(/C(=C\c2ccc[nH]2)[N+](=O)[O-])N(Cc2cnc(Cl)s2)CC1.[Cl-] has Plutella xylostella Plutella xylostella Mortality (%) 500 ppm equal to 100

Record C[N+]1=C(C(=Cc2cc(Br)c(Br)s2)[N+](=O)[O-])N(Cc2ccc(Cl)nc2)CC1.[Cl-] has Plutella xylostella Plutella xylostella Mortality (%) 500 ppm equal to 100

Record C[N+]1=C(C(=Cc2ccc(Br)o2)[N+](=O)[O-])N(Cc2cnc(Cl)s2)CC1.[Cl-] has Plutella xylostella Plutella xylostella Mortality (%) 500 ppm equal to 100

Record N#CC(=Cc1cc(Cl)c(Cl)s1)C1=NCCN1Cc1ccc(Cl)nc1 has Plutella xylostella Plutella xylostella Mortality (%) 500 ppm equal to 100

Record C[N+]1=C(C(=Cc2ccc(CO)o2)[N+](=O)[O-])N(Cc2ccc(Cl)nc2)CC1.[Cl-] has Plutella xylostella Plutella xylostella Mortality (%) 500 ppm equal to 100

Record O=[N+]([O-])C(=Cc1ccc(Br)s1)C1=NCCN1Cc1cnc(Cl)s1 has Plutella xylostella Plutella xylostella Mortality (%) 500 ppm equal to 100

Record Cc1ccc(C=C(C2=NCCN2Cc2ccc(Cl)nc2)[N+](=O)[O-])o1 has Plutella xylostella Plutella xylostella Mortality (%) 500 ppm equal to 100
